Where do these numbers come from? They come from patent US9801880B2.

biological target: c-Kit (V560G) (Homo sapiens, UniProt P10721, V560G); experiment: KinaseProfiler kinase activity assay
Sequence (P10721 26-976 V560G): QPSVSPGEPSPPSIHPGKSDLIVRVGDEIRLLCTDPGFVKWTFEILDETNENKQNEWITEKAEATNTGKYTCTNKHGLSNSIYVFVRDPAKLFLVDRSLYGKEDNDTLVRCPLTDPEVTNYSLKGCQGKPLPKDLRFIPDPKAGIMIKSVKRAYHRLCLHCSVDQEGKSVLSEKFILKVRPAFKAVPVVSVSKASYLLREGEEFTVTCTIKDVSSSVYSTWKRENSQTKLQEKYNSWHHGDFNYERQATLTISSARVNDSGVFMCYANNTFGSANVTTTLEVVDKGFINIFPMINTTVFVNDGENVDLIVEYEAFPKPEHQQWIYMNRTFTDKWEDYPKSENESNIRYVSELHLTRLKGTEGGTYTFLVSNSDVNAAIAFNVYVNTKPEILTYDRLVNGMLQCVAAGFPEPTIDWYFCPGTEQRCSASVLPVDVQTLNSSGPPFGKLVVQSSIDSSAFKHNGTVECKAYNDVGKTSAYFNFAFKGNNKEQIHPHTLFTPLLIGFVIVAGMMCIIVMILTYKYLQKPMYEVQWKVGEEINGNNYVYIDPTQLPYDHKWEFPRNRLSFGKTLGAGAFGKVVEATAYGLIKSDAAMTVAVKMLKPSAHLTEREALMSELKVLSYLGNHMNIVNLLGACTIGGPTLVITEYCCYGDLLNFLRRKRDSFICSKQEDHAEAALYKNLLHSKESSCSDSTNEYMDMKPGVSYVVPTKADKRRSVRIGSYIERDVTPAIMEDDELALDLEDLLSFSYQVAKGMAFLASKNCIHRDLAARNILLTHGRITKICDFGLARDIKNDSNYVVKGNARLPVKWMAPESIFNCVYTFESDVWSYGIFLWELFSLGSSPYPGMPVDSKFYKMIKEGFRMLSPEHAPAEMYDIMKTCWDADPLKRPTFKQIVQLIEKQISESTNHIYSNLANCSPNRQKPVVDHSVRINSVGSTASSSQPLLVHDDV
READOUT_TYPE: IC50
Include the unit after the number when you answer.

IC50 measured on Nc1nc(Nc2ccc3c(c2)CC[C@@H](N2CCCC2)CC3)nn1-c1cc2c(nn1)-c1ccccc1CCC2 [Compound A] = 45 nM

* * *

Target: Flt3 (D835Y) (Homo sapiens, UniProt P36888, D835Y)
Sequence (P36888 27-993 D835Y): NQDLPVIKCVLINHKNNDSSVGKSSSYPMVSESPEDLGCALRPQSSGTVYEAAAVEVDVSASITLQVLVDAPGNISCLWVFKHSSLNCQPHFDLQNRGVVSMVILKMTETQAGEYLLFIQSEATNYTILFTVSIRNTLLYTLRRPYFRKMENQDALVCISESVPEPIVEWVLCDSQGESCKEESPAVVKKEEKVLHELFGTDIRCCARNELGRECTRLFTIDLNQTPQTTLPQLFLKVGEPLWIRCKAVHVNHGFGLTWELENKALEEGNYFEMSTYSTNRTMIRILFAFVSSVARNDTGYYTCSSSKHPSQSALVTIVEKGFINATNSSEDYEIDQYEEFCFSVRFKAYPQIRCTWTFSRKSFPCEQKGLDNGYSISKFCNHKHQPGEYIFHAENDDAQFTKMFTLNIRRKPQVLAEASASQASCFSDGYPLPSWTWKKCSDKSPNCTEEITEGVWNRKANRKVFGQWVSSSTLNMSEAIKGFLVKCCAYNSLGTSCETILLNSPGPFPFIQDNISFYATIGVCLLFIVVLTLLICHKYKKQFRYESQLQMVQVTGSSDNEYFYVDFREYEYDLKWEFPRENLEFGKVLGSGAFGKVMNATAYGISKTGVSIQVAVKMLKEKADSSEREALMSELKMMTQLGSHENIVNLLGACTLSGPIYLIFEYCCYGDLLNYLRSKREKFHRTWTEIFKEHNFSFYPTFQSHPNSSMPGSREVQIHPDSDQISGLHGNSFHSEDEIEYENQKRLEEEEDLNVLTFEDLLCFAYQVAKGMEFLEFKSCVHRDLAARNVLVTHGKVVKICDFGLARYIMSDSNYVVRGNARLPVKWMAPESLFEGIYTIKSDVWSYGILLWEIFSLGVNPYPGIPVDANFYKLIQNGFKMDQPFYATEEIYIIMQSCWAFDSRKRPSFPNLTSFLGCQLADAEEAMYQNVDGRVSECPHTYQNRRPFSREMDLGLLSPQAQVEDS
Assay: KinaseProfiler kinase activity assay
Assay type: biochemical
Set-up: purchased EMD Millipore Corp. (KinaseProfiler service)
Details: ATP at Km
Text: A summary is provided below.
READOUT_TYPE: IC50 (nM)
Report the value in nM with no unit label.

For `Nc1nc(Nc2ccc3c(c2)CC[C@@H](N2CCCC2)CC3)nn1-c1cc2c(nn1)-c1ccccc1CCC2` the compound record lists IC50 as 13
